Task for the reader: assign each of the following compounds its reported pIC50.
Target: human SCD5 (Homo sapiens, UniProt Q86SK9)
Construct: expressed in transfected cells; host or cells: yeast strain with OLE1 deleted, plasmid-borne human SCD5 (selected in SD-Ura)
Sequence (Q86SK9 1-330): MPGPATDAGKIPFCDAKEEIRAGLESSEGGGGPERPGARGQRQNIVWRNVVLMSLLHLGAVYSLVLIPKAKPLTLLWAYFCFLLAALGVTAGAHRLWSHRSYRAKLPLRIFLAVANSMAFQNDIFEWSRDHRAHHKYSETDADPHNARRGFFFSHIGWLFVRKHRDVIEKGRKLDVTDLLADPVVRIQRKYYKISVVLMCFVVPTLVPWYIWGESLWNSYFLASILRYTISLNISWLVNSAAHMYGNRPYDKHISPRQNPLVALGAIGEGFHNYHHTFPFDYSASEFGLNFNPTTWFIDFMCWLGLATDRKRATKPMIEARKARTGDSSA
Assay: Growth inhibition of yeast strain expressing human SCD5 as sole desaturase (OLE1 deleted), OD600 readout
Assay type: cell-based
Conditions: yeast strain expressing human SCD5 as sole desaturase; growth (OD600) after 40 h at 30° C.; read-out: SCD5 IC50
Scale: pIC50 equals -log10([C]), with [C] in mol/L.

// query # lookup: pIC50 of O=C(Nc1ccc(Cc2cccc(Cl)c2)cn1)c1ccc(=O)n(C2CC2)n1 [Compound 256]
// result 7.40

// query # lookup: pIC50 of O=C(Nc1ccc(Cc2cc(F)cc(F)c2)cn1)c1ccncc1 [Compound 651]
// result 7.62

// query # lookup: pIC50 of CN1N=C(C(=O)Nc2ncc(Cc3cc(F)cc(Cl)c3)s2)CCC1=O [Compound 216]
// result 7.70

// query # lookup: pIC50 of Cn1cc(C(=O)Nc2ccc(Cc3cc(F)cc(Cl)c3)cn2)cn1 [Compound 316]
// result 8.00

// query # lookup: pIC50 of Cc1cnc(C(=O)Nc2ccc(Cc3cccc(F)c3)cn2)cn1 [Compound 252]
// result 6.89

// query # lookup: pIC50 of CCn1cc(C(=O)Nc2ccc(Cc3ccc(F)c(F)c3)cn2)ccc1=O [Compound 582]
// result 6.55

// query # lookup: pIC50 of CC(=O)c1ccc(C(=O)Nc2ccc(Cc3cccc(Cl)c3)cn2)nc1 [Compound 502]
// result 8.00

// query # lookup: pIC50 of O=C(Nc1ccc(COc2ccc(F)c(Cl)c2)cn1)c1ccc(CO)nc1 [Compound 293]
// result 7.40

// query # lookup: pIC50 of Cn1nc(C(=O)Nc2ccc(COc3ccc(F)c(F)c3)cn2)ccc1=O [Compound 664]
// result 6.05

// query # lookup: pIC50 of O=C(Nc1ccc(Cc2cccc(Cl)c2)cn1)c1cnc(CO)nc1 [Compound 494]
// result 8.00

// query # lookup: pIC50 of COCc1ncc(C(=O)Nc2ccc(Cc3cccc(Cl)c3)cn2)cn1 [Compound 479]
// result 6.17

// query # lookup: pIC50 of CCn1cc(C(=O)Nc2ccc(Oc3ccc(F)c(Cl)c3)cn2)ccc1=O [Compound 169]
// result 5.61

// query # lookup: pIC50 of Cn1cc(NC(=O)c2ccc(COc3ccc(F)c(Cl)c3)cn2)ccc1=O [Compound 488]
// result 6.96

// query # lookup: pIC50 of Cn1ccc(C(=O)Nc2ccc(Cc3ccc(F)c(F)c3)cn2)n1 [Compound 371]
// result 8.00

// query # lookup: pIC50 of O=C(Nc1ccc(Cc2cccc(Cl)c2)cn1)c1ccc(CO)nc1 [Compound 131]
// result 8.00

// query # lookup: pIC50 of Cc1nnc(C(=O)Nc2ccc(Cc3cccc(Cl)c3)cn2)s1 [Compound 103]
// result 7.10

// query # lookup: pIC50 of Cn1cc(NC(=O)c2ncc(Cc3ccc(F)c(F)c3)cc2F)ccc1=O [Compound 625]
// result 6.51

// query # lookup: pIC50 of O=C(Nc1ccc(Cc2cccc(Cl)c2)cn1)c1ccc2nncn2c1 [Compound 146]
// result 8.00

// query # lookup: pIC50 of CCn1ccc(C(=O)Nc2ccc(Cc3cccc(F)c3)cn2)n1 [Compound 101]
// result 7.70

// query # lookup: pIC50 of O=C(Nc1ccc(Cc2cccc(F)c2)cn1)c1ncc(Br)cn1 [Compound 490]
// result 5.66

// query # lookup: pIC50 of CN1N=C(C(=O)Nc2ccc(Cc3cccc(Cl)c3)cc2)CCC1=O [Compound 2]
// result 5.58

// query # lookup: pIC50 of CN1N=C(C(=O)Nc2ncc(Cc3cc(F)ccc3F)s2)CCC1=O [Compound 235]
// result 5.75

// query # lookup: pIC50 of Cn1nc(C(=O)Nc2ccc(COc3ccc(F)cc3)cn2)ccc1=O [Compound 599]
// result 6.03

// query # lookup: pIC50 of CCn1cc(C(=O)Nc2ccc(Cc3cccc(Cl)c3)cn2)ccc1=O [Compound 84]
// result 6.43

// query # lookup: pIC50 of O=C(Nc1ncc(Br)cn1)c1ccc(Cc2cccc(F)c2)cn1 [Compound 631]
// result 5.66

// query # lookup: pIC50 of Cc1cc(C(=O)Nc2ccc(Cc3cc(F)cc(C#N)c3)cn2)cnc1Cl [Compound 665]
// result 6.31
